target of assay: human GCGR (full-length glucagon receptor of 477 amino acids) (human, UniProt P47871 26-477)
Sequence (P47871 26-477 limits assumed): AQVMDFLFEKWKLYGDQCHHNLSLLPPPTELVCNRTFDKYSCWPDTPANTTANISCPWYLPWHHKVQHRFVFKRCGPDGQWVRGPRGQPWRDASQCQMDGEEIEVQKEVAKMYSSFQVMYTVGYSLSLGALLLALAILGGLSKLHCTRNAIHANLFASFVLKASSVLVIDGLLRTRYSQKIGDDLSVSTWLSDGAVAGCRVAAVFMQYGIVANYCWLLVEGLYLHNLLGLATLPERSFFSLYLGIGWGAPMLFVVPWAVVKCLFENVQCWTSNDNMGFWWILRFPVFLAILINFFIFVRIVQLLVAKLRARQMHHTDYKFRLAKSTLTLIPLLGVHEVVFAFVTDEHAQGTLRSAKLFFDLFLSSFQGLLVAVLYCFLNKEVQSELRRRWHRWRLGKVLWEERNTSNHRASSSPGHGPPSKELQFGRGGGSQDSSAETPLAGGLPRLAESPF
experiment: cell-based or functional assay
Entries annotated with measured Imax
Write it as a number; the unit % goes unstated.

// below: answered binders
binder | Imax, %
hu1803-3 (antibody, human IgG4 S228P, kappa, F234A L235A, V domains shown) VH: EVQLVQSGAEVKKPGASVKVSCKASGYTFTDYWIEWVRQAPGQGLEWIGEILPGSTYTNYNEKFKGRATFTADTSTSTAYMELSSLRSEDTAVYYCSRGLSTLMAVDYFDYWGQGTTVTVSS VL: DIQMTQSPSSLSASVGDRVTITCRASQDISNYLNWYQQKPGKAPKLLIYYSSTLHSGVPSRFSGSGSGTDFTLTISSLQPEDFATYYCQQTNIFPWTFGGGTKVEIKR | 96.7
hu1810-1 (antibody, human IgG4 S228P, kappa, F234A L235A, V domains shown) VH: QVQLVQSGAEVKKPGSSVKVSCKASGGTFSNYAISWVRQAPGQGLEWMGEIYPTSGNTYYNEKFKGRVTITADKSTSTAYMELSSLRSEDTAVYYCARGVITTVVSTDYFDYWGQGTLVTVSS VL: DIQMTQSPSSLSASVGDRVTITCRASLDISNYLNWYQQKPGKAPKLLIYYTSTLHSGVPSRFSGSGSGTDFTLTISSLQPEDFATYYCQQGNMVPYTFGGGTKVEIKR | 83.2
hu1810-4 (antibody, human IgG4 S228P, kappa, F234A L235A, V domains shown) VH: QVQLVQSGAEVKKPGSSVKVSCKASGGTFSNYAISWVKQAPGQGLEWIGEIYPTSGNTYYNEKFKGKATLTADRSTSTMYMELSSLRSEDTAVYYCASGVITTVVSTDYFDYWGQGTLVTVSS VL: DIQMTQSPSSLSASVGDRVTITCRASLDISNYLNWYQQKPGKAPKLLIYYTSTLHSGVPSRFSGSGSGTDFTLTISSLQPEDFATYYCQQGNMVPYTFGGGTKVEIKR | 99.1
hu1810-5 (antibody, human IgG4 S228P, kappa, F234A L235A, V domains shown) VH: QVQLVQSGAEVKKPGSSVKVSCKASGGTFSNYAISWVRQAPGQGLEWMGEIYPTSGNTYYNEKFKGRVTITADKSTSTAYMELSSLRSEDTAVYYCARGVITTVVSTDYFDYWGQGTLVTVSS VL: DIQMTQSPSSLSASVGDRVTITCRASLDISNYLNWYQQKPGKAVKLLIYYTSTLHSGVSSRFSGSGSGTDYTLTISSLQPEDFATYYCQQGNMVPYTFGGGTKVEIKR | 86.4

Now, please, on to the next binder.
INPUT: Give recorded Imax. hu1803-8 (antibody, human IgG4 S228P, kappa, F234A L235A, V domains shown) VH: EVQLVQSGAEVKKPGASVKVSCKASGYTFTDYWIEWVKQAPGQGLEWIGEILPGSTYTNYNEKFKGRATFTADPSTSTAYMELSSLRSEDTAVYYCSRGLSTLMAVDYFDYWGQGTTVTVSS VL: DIQMTQSPSSLSASVGDRVTITCRASQDISNYLNWYQQKPGGAVKLLIYYSSTLHSGVPSRFSGSGSGTDYTLTISSLQPEDFATYFCQQTNIFPWTFGGGTKVEIKR
OUTPUT: 100
